- Test system: TRZAWR (Wheat, Winter, cv Riband)
- ASSAY DETAILS: Postemergence herbicidal evaluation
- Format: in vivo, Triticum aestivum
- ASSAY CONDITIONS: postemergence, rate 0.0630 kg/ha
ENDPOINT: TRZAWR herbicidal rating
Format: numeric value only, no unit, no commentary.

Example results:
>>> endpoint_result("C#CCOC(=O)CC1SC(=Nc2cc(-n3c(=O)cc(C(F)(F)F)n(C)c3=O)c(F)cc2Cl)N(C)C1=O (stereo not shown)")
7.5
>>> endpoint_result("CCOC(=O)CN1C(=O)C(Cc2ccccc2)SC1=Nc1cc(-n2c(=O)cc(C(F)(F)F)n(C)c2=O)c(F)cc1Cl (stereo not shown)")
3.5

Ask: Query (molecule): CCOC(=O)CN1C(=O)C(=Cc2ccccc2)SC1=Nc1cc(-n2c(=O)cc(C(F)(F)F)n(C)c2=O)c(F)cc1Cl ; field requested: TRZAWR herbicidal rating
Reply: 4.5

Ask: Given CC(C)C[C@@H](C(=O)O)N1C(=O)CSC1=Nc1cc(-n2c(=O)cc(C(F)(F)F)n(C)c2=O)c(F)cc1Cl , state its recorded TRZAWR herbicidal rating.
Reply: 4.5

---

Attribute: SETVI herbicidal rating
- Tested on: SETVI (Foxtail, Green)
- ASSAY DETAILS: Postemergence herbicidal evaluation
- Type: in vivo, Setaria viridis
- ASSAY CONDITIONS: postemergence, rate 0.0630 kg/ha

Sample answers from the record:
>>> endpoint_result("C#CCOC(=O)CC1SC(=Nc2cc(-n3c(=O)cc(C(F)(F)F)n(C)c3=O)c(F)cc2Cl)N(C)C1=O (stereo not shown) [Compound 90]")
9.0
>>> endpoint_result("CCOC(=O)CN1C(=O)C(CC(=O)Nc2ccccc2)SC1=Nc1cc(-n2c(=O)cc(C(F)(F)F)n(C)c2=O)c(F)cc1Cl (stereo not shown) [Compound 68]")
6.0
>>> endpoint_result("C[C@H](C(=O)O)N1C(=O)CSC1=Nc1cc(-n2c(=O)cc(C(F)(F)F)n(C)c2=O)c(F)cc1Cl [Compound 70]")
9.0
>>> endpoint_result("COC(=O)C(Cc1ccc(Cl)cc1)N1C(=O)CSC1=Nc1cc(-n2c(=O)cc(C(F)(F)F)n(C)c2=O)c(F)cc1Cl (racemic) [Compound 77]")
7.0
>>> endpoint_result("CN1C(=O)C(CC(=O)OCCF)SC1=Nc1cc(-n2c(=O)cc(C(F)(F)F)n(C)c2=O)c(F)cc1Cl (stereo not shown) [Compound 93]")
9.0

Ask: Quick check: SETVI herbicidal rating of CN(C)N1C(=O)CSC1=Nc1cc(-n2c(=O)cc(C(F)(F)F)n(C)c2=O)c(F)cc1Cl [Compound 23] ?
Reply: 4.0

Ask: For C=CCOC(=O)CC1SC(=Nc2cc(-n3c(=O)cc(C(F)(F)F)n(C)c3=O)c(F)cc2Cl)N(CC=C)C1=O (stereo not shown) [Compound 65] , what is its reported SETVI herbicidal rating?
Reply: 9.0

---

Listed next: entries and their corresponding ORYSAT preemergence herbicidal rating.
- System: ORYSAT (Rice, Tebonnet)
- ASSAY DETAILS: Preemergence herbicidal evaluation
- Assay type: in vivo, Oryza sativa, (L.) Tebonnet
- ASSAY CONDITIONS: rate 0.0625 kg/ha; rated 4-5 weeks after treatment

Ask: What does the data say about its ORYSAT preemergence herbicidal rating? Entry: CCOC(=O)/C=C1/S/C(=N/c2cc(-n3c(=O)cc(C(F)(F)F)n(C)c3=O)c(F)cc2Cl)N(CC(=O)OCC)C1=O [Compound 14]
Reply: 0.0

Ask: Any idea what ORYSAT preemergence herbicidal rating was measured for CN1C(=O)CS/C1=N/c1cc(-n2c(=O)cc(C(F)(F)F)n(C)c2=O)c(F)cc1Cl [Compound 7] ?
Reply: 8.0

Ask: Look at this compound and give its reported ORYSAT preemergence herbicidal rating. CCOC(=O)CN1C(=O)CO/C1=N/c1cc(-n2c(=O)cc(C(F)(F)F)n(C)c2=O)c(F)cc1Cl [Compound 22]
Reply: 0.0

Ask: Requested read-out: ORYSAT preemergence herbicidal rating. Entry: CCOC(=O)CN1C(=O)C(Cc2ccccc2)SC1=Nc1cc(-n2c(=O)cc(C(F)(F)F)n(C)c2=O)c(F)cc1Cl (stereo not shown) [Compound 24]
Reply: 0.0

---

- System: AMBEL (Ragweed, Common)
- ASSAY DETAILS: Postemergence herbicidal evaluation
- Assay type: in vivo, Ambrosia artemisifolia
- ASSAY CONDITIONS: postemergence, rate 0.0625 kg/ha
ENDPOINT: AMBEL herbicidal rating
Just the number, please, no unit attached.

Solved cases below.
>>> endpoint_result("Cn1c(C(F)(F)F)cc(=O)n(-c2cc(N=C3SCC(=O)N3Cc3ccccc3)c(Cl)cc2F)c1=O")
9.0
>>> endpoint_result("CCOC(=O)/C=C1/S/C(=N/c2cc(-n3c(=O)cc(C(F)(F)F)n(C)c3=O)c(F)cc2Cl)N(CC(=O)OCC)C1=O")
9.0
>>> endpoint_result("C=CCN1C(=O)C(CC(=O)NS(C)(=O)=O)SC1=Nc1cc(-n2c(=O)cc(C(F)(F)F)n(C)c2=O)c(F)cc1Cl (centres unmarked)")
7.0
>>> endpoint_result("CCOC(=O)CN1C(=O)CSC1=Nc1cc(-n2c(=O)cc(C(F)(F)F)n(C)c2=O)c(F)cc1Cl")
8.3
>>> endpoint_result("CCC1SC(=Nc2cc(N3C(=O)C4=C(CCCC4)C3=O)c(F)cc2Cl)N(C)C1=O (centres unmarked)")
2.0
>>> endpoint_result("CCOC(=O)CN1C(=O)C2(CC2)SC1=Nc1cc(-n2c(=O)cc(C(F)(F)F)n(C)c2=O)c(F)cc1Cl")
4.0
>>> endpoint_result("CCOC(=O)CN1C(=O)C(CC(=O)NOC)SC1=Nc1cc(-n2c(=O)cc(C(F)(F)F)n(C)c2=O)c(F)cc1Cl (centres unmarked)")
9.0

Ask: # AMBEL herbicidal rating lookup, item C=CCN1C(=O)CSC1=Nc1cc(N2C(=O)C3=C(CCCC3)C2=O)c(F)cc1Cl
Reply: 6.0

---

Each entry below carries its reported Preemergence herbicidal rating GLXMAW.
- Test system: GLXMAW (Soybean, Williams)
- ASSAY DETAILS: Preemergence herbicidal evaluation
- Type: in vivo, Glycine max, (L.) Merr. cv Williams
- ASSAY CONDITIONS: 0.0625 kg/ha, rated 4-5 weeks after treatment
Could you keep your reply to the number by itself?

The examples below pair each entry with its known result.
>>> endpoint_result("Cn1c(C(F)(F)F)cc(=O)n(-c2cc(N=C3SCC(=O)N3C3CCC3)c(Cl)cc2F)c1=O")
0.0
>>> endpoint_result("CCOC(=O)CN1C(=O)C(CC(=O)O)SC1=Nc1cc(N2C(=O)CC(C(F)(F)F)CC2=O)c(F)cc1Cl (stereo not shown)")
4.0
>>> endpoint_result("CC(C)N1C(=O)CSC1=Nc1cc(-n2c(=O)cc(C(F)(F)F)n(C)c2=O)c(F)cc1Cl")
5.0

Ask: Please give the measured Preemergence herbicidal rating GLXMAW for this molecule: CCN1C(=O)CSC1=Nc1cc(-n2c(=O)cc(C(F)(F)F)n(C)c2=O)c(F)cc1Cl
Reply: 1.0

---

- Tested on: AMBEL (Ragweed, Common)
- ASSAY DETAILS: Postemergence herbicidal evaluation
- Format: in vivo, Ambrosia artemisifolia
- ASSAY CONDITIONS: postemergence, rate 0.0315 kg/ha
ENDPOINT: AMBEL herbicidal rating
Answer as a number with no unit attached.

>>> endpoint_result("C#CCOC(=O)CC1SC(=Nc2cc(-n3c(=O)cc(C(F)(F)F)n(C)c3=O)c(F)cc2Cl)N(C)C1=O (stereo not shown)")
9.0

Ask: Item CN1C(=O)C(CC(=O)OCCF)SC1=Nc1cc(-n2c(=O)cc(C(F)(F)F)n(C)c2=O)c(F)cc1Cl (stereo not shown) with AMBEL (Ragweed, Common) - AMBEL herbicidal rating?
Reply: 9.0

Ask: # get_value(readout= AMBEL herbicidal rating, system= AMBEL (Ragweed, Common)) for C#CCOC(=O)CC1SC(=Nc2cc(-n3c(=O)cc(C(F)(F)F)n(C)c3=O)c(F)cc2Cl)N(CC=C)C1=O (stereo not shown)
Reply: 7.0

Ask: Kindly state the measured AMBEL herbicidal rating obtained for CCOC(=O)CN1C(=O)C(=Cc2ccccc2)SC1=Nc1cc(-n2c(=O)cc(C(F)(F)F)n(C)c2=O)c(F)cc1Cl with AMBEL (Ragweed, Common).
Reply: 3.0

---

- System: TRZAWR (Wheat, Winter, cv Riband)
- ASSAY DETAILS: Preemergence herbicidal evaluation
- Assay type: in vivo, Triticum aestivum
- ASSAY CONDITIONS: rate 0.0625 kg/ha; rated 4-5 weeks after treatment; rating scale 0-9
ENDPOINT: Preemergence herbicidal rating TRZAWR
Answer with a number only.

>>> endpoint_result("COc1cc(CN2C(=O)CSC2=Nc2cc(-n3c(=O)cc(C(F)(F)F)n(C)c3=O)c(F)cc2Cl)cc(OC)c1OC [Compound 140]")
0.0
>>> endpoint_result("Cn1c(C(F)(F)F)cc(=O)n(-c2cc(N=C3SCC(=O)N3Cc3ccc(Cl)c(Cl)c3)c(Cl)cc2F)c1=O [Compound 144]")
0.0
>>> endpoint_result("CN(C)c1ccc(CN2C(=O)CSC2=Nc2cc(-n3c(=O)cc(C(F)(F)F)n(C)c3=O)c(F)cc2Cl)cc1 [Compound 138]")
0.0

Read the next record carefully.
Ask: Entry under review: Cn1c(C(F)(F)F)cc(=O)n(-c2cc(N=C3SCC(=O)N3Cc3ccc(C(F)(F)F)cc3)c(Cl)cc2F)c1=O [Compound 141] . Reported Preemergence herbicidal rating TRZAWR?
Reply: 0.0
